Data origin: the supplement of paper PMC12340641

System under test: IKZF1 (dCK*-IKZF1 fusion in HEK293FT)
Assay overview: inhibition of IKZF1 HTRF signal (DMSO = 0%, pomalidomide 10 uM = 100%); higher = lower IKZF1 protein level
Condition parameters: compound concentration: 5 uM, overnight (~20 h)
Where a name gives a salt, the structure may show the parent alone.
Entries annotated with measured inhibition of IKZF1 HTRF signal
Measurement label: inhibition of IKZF1 HTRF signal (%)

1. C/C(=N/Nc1nnc2c(n1)[nH]c1c(C)cccc12)c1ccccn1
45.9
2. CC[C@]1(O)C[C@H]2CN(CCc3c([nH]c4ccccc34)[C@@](C(=O)OC)(c3cc4c(cc3OC)N(C)[C@H]3[C@@](O)(C(N)=O)[C@H](O)[C@]5(CC)C=CCN6CC[C@]43[C@@H]65)C2)C1 [Vindesine Sulfate]
-14
3. CN(C)c1ccc2c(c1)Sc1cc(N(C)C)ccc1N2.CS(=O)(=O)O [Leucomethylene blue (Mesylate)]
-24.1
4. O=C1OCCN1/N=C/c1ccc([N+](=O)[O-])o1
-32.5
5. CC[C@@]1(O)C(=O)OCc2c1cc1n(c2=O)Cc2cc3c(N)cccc3nc2-1
31.3
6. O=C1N(c2ccccc2)c2ccccc2C1(Cc1ccncc1)Cc1ccncc1
-39.8
7. O=C1Nc2ccc(Cl)cc2[C@@](C#CC2CC2)(C(F)(F)F)O1
19.7
8. O=C(Nc1ccc2[nH]ccc2c1)c1ccccc1
-24.8
9. Oc1cc(CNC(=S)/C=C/c2cc(O)c(O)c(Br)c2)cc(O)c1O
-32.2
10. CC(C)(C)CC(C)(C)c1ccc(O)c(Cc2ccc(Cl)cc2Cl)c1
115
11. Cn1c(NCCN(CCO)CCCc2ccc([N+](=O)[O-])cc2)cc(=O)n(C)c1=O
-33.5
12. CC(C)(N)c1nc(-c2ccc(OC(F)(F)F)cc2)c[nH]1
-29.8
13. COc1cccc2c(O)c3c(O)c4c(c(O)c3c(O)c12)=C(O[C@H]1C[C@H](N)[C@@H](O)[C@H](C)O1)C[C@](O)(C(=O)CO)C=4 [Epirubicin HCl]
24
14. Cc1ccc(S(=O)(=O)N/N=C/c2cc(Br)ccc2O)cc1
26
15. CCCCC(F)(F)C(=O)CC[C@H]1[C@H](O)CC(=O)[C@@H]1CCCCCCC(=O)O
-43.7
16. CN(C)CCC=C1c2ccccc2CCc2ccccc21
8.98
17. CN1CCC(=C2c3ccccc3Sc3ccccc32)CC1
-29.9
18. CCCCC(CC)C/N=C(\N)N/C(N)=N/CCCCCC/N=C(\N)N/C(N)=N/CC(CC)CCCC (centres undefined) [Alexidine dihydrochloride]
63.4
19. Cc1ncsc1-c1ccc(CNC(=O)[C@@H]2C[C@@H](O)CN2C(=O)[C@@H](NC(=O)COCCOCCOc2ccc(-c3ccc4ncnc(Nc5ccc(OCc6cccc(F)c6)c(Cl)c5)c4c3)cc2)C(C)(C)C)cc1
6.76
20. CCN(CC)CCNc1ccc(CO)c2sc3ccccc3c(=O)c12
-30.4
21. Clc1ccc(CSC(Cn2ccnc2)c2ccc(Cl)cc2Cl)cc1 (centres undefined)
-35.5
22. OC(c1cc(C(F)(F)F)nc2c(C(F)(F)F)cccc12)C1CCCCN1 (centres undefined)
-31.6
23. COc1cc([C@@H]2c3cc4c(cc3[C@@H](O[C@@H]3O[C@@H]5COC(c6cccs6)O[C@H]5[C@H](O)[C@H]3O)[C@H]3COC(=O)C23)OCO4)cc(OC)c1O (some centres undefined) [Teniposide]
-45.1
24. CC(=O)[C@]1(O)Cc2c(O)c3c(c(O)c2[C@@H](O[C@H]2C[C@H](N)[C@H](O)[C@H](C)O2)C1)C(=O)c1ccccc1C3=O [Idarubicin HCl]
11.7
25. FC(F)(F)c1cc(NC(=S)Nc2ccc(Br)cc2-c2nnn[nH]2)cc(C(F)(F)F)c1
-39
26. c1ccc(CNc2nc(NCc3ccccc3)c3ccccc3n2)cc1
-15.7
27. CCN(CC)CCCN(c1ccccc1)C1Cc2ccccc2C1
2.2
28. CN(C)c1ccc(C(=C2C=CC(=[N+](C)C)C=C2)c2ccc(N(C)C)cc2)cc1
-12.9
29. CC/C(=C(\c1ccc(O)cc1)c1ccc(OCCN(C)C(=O)COCCOCCOCCOc2cccc(C(=O)c3csc([C@@H]4CCCN4C(=O)[C@@H](NC(=O)[C@H](C)NC)C4CCCCC4)n3)c2)cc1)c1ccccc1
13.9
